# Tested on: HSC-2 (Oral Cavity Carcinoma)
# assay-explanation: combination Emax (second highest fraction inhibited in the dose matrix, 72 h); higher = more inhibition; extreme values may be limits of the assay
Each item that follows carries a reported combination Emax.
The answer should be written as a number, with no unit following it.

For orientation, consider the following solved cases.
CN(CCO)CC[C@H](CSc1ccccc1)Nc1ccc(S(=O)(=O)NC(=O)c2ccc(N3CCC([C@@H](O)c4ccccc4-c4ccc(Cl)cc4)CC3)cc2)cc1S(=O)(=O)C(F)(F)F [AZD4320] + Cc1cc2ncnn2cc1Nc1ncc2c(n1)n(C1CCOCC1)c(=O)n2C [AZD7648] (first compound max 1 µM, 7x7, partner max 10 µM) = 0.461
CN(CCO)CC[C@H](CSc1ccccc1)Nc1ccc(S(=O)(=O)NC(=O)c2ccc(N3CCC([C@@H](O)c4ccccc4-c4ccc(Cl)cc4)CC3)cc2)cc1S(=O)(=O)C(F)(F)F [AZD4320] + CN(C)CCCOc1ccc(-c2ccc3ncc4c(c3c2)n(C2CCOCC2)c(=O)n4C)cn1 [AZD0156] (first compound max 1 µM, 7x7, partner max 1 µM) = 0.269

Shift focus to the following entry.
Data request: Suppose we examine the compound CC1(C)CCC(CN2CCN(c3ccc(C(=O)NS(=O)(=O)c4ccc(NCC5CCOCC5)c([N+](=O)[O-])c4)c(Oc4cnc5[nH]ccc5c4)c3)CC2)=C(c2ccc(Cl)cc2)C1 [Venetoclax] + CS(=O)(=O)CCNCc1ccc(-c2ccc3ncnc(Nc4ccc(OCc5cccc(F)c5)c(Cl)c4)c3c2)o1 [Lapatinib] (first compound max 1 µM, 7x7, partner max 10 µM) ; what combination Emax value has been reported?
Data returned: 0.8
